test system: KM12 colon; assay: NCI tumour cell line growth inhibition, 48 h
MEASURED_ENDPOINT: TGI

NCCCCNCCCN
> 100 µM
O=C(NN=C1CCCCC1)Nc1ccccc1Cl
> 100 µM
NCCCn1c2c(c3ccc([N+](=O)[O-])cc3c1=O)C(=O)c1cc3c(cc1-2)OCO3
4.42 µM

Lab note: each compound below needs its TGI filled in.
1. O=C(/C=C/c1cccs1)c1ccsc1
2. OC(COc1ccc(Cl)cc1Cl)CN1CCCC1 (stereo unspecified)
3. C[C@@H]1CN(Cc2ccc(/C=C/c3n[nH]c4ccc5nc(-c6cn[nH]c6C(F)(F)F)c6c(c5c34)CCCC6)cc2)C[C@H](C)O1

Result:
> 10 µM
> 100 µM
14.3 µM

###

system: NCI/ADR-RES ovarian; assay: NCI tumour cell line growth inhibition, 48 h
MEASURED_ENDPOINT: TGI (µM)
Numbers only, in µM.

COc1cc2c(cc1OCCCCC(=O)Nc1ccc(-c3nc4ccccc4s3)cc1)N=C[C@@H]1CCCN1C2=O
62.6
CCCCCCC(CCl)c1sc(-c2csc(CCNC(=O)OC(C)(C)C)n2)nc1C(=O)OC (stereo not given)
14.8

State recorded TGI for all listed compounds.
1. CCN(CC)C(=S)SNCCc1ccc(S(N)(=O)=O)cc1
2. COc1cc(C/C=C/c2ccccc2)c(OC)cc1O
3. COC(=O)c1[nH]nc(-c2ccccc2)c1N1CCCCC1
4. Oc1c(I)cc(I)cc1CNCCCN(Cc1ccccn1)Cc1ccccn1

Result:
[41.6, 72, 58.5, 4.29]

###

test system: MOLT-4 leukemia; assay: NCI tumour cell line growth inhibition, 48 h
Where a SMILES comes first, the peptide text is derived from it. [ ]: non-standard residue; d: D form. The star is where a group is joined. NMeF = CN[CH](Cc1ccccc1)C(=O)O; NMeV = CN[CH](C(=O)O)C(C)C; Boc = CC(C)(C)OC(=O)*; OBn = c1ccc(CO*)cc1
MEASURED_ENDPOINT: TGI

Give TGI for each listed item.
1. O=C1Cc2ccccc2N1/N=C\c1ccc(O)cc1
2. O=C1Nc2ccccc2NC1C1OC(c2ccccc2)=CC1=O (centres undefined)
3. CC(C)O/C=C1\C(=O)C2(SCCS2)[C@H]2CCCC[C@@H]12
4. CC(=O)Nc1ccc(-c2nnc(SCC(=O)Nc3ccccc3[N+](=O)[O-])o2)cc1
5. O=C(c1ccc(Cl)cc1)N(Cc1cccnc1)C(=S)N(Cc1cccnc1)C(=O)c1ccc(Cl)cc1

Result:
["> 100 µM", "> 100 µM", "46.4 µM", "> 100 µM", "> 100 µM"]

# map each molecule to its TGI
1. O=c1c2c([nH]c3cc4c(cc13)OCO4)-c1ccccc1CCC2
2. CC(C)C(NC(=O)OC(C)(C)C)C(=O)N(C)C(Cc1ccccc1)C(=O)N(C)C(C(=O)N(C)C(C(=O)OCc1ccccc1)C(C)C)C(C)C (centres undefined) (Boc-V[NMeF][NMeV][NMeV]-OBn; configuration not given here)
3. COC(=O)C1(NC(=O)C(N)CC(=O)O)C(C)C1C (centres undefined)

Result:
1: > 50 µM; 2: > 100 µM; 3: > 100 µM

Task: What measured TGI goes with COc1cc2ccc(CC#N)cc2cc1OC ?
Result: > 100 µM

###

test system: NCI/ADR-RES ovarian; test: NCI tumour cell line growth inhibition, 48 h
TGI vs 60 µM: at or above is condition met, below is condition not met.

NC(=O)Nc1ccc2ncnc(Nc3ccc(Cl)cc3)c2c1
condition met
COc1ccc(S(=O)(=O)O)cc1NS(=O)(=O)c1ccc(C)cc1
condition met
O=C(O)c1cn(C2CC2)c2cc(N3CCN(S(=O)(=O)c4ccc(Cl)c(Cl)c4)CC3)c(F)cc2c1=O
condition met

Task: Could you verify whether the entry CC1=CC(=O)c2cccc(NC3=NCCO3)c21 shows TGI of no less than 60 µM?
Result: condition met

Task: Also Cc1nnc(N)nc1/C=C\c1cccs1 , if possible.
Result: condition met

Task: Request: COC(=O)Nc1nc2c(OC)c(OC)c(OC)cc2[nH]1
Result: condition met

###

test system: M19-MEL melanoma; assay: NCI tumour cell line growth inhibition, 48 h
Where a SMILES comes first, the peptide text is derived from it. [ ]: non-standard residue; d: D form. The star is where a group is joined. NMeF = CN[CH](Cc1ccccc1)C(=O)O; NMeV = CN[CH](C(=O)O)C(C)C; Boc = CC(C)(C)OC(=O)*; OBn = c1ccc(CO*)cc1
MEASURED_ENDPOINT: TGI

CCC[CH2][Sn]1([CH2]CCC)[O]C(=O)C[S]1
7.75 µM
CC(C)C(NC(=O)OC(C)(C)C)C(=O)N(C)C(Cc1ccccc1)C(=O)N(C)C(C(=O)N(C)C(C(=O)OCc1ccccc1)C(C)C)C(C)C (configuration not stated) (Boc-V[NMeF][NMeV][NMeV]-OBn; configuration not given here)
> 100 µM
COc1cc2c(c3oc(-c4ccc5c(c4)OCO5)c(O)c(=O)c13)CCC(C)(C)O2
> 100 µM
CN(C)c1nc(N(C)C)nc(N(C)CN(C)c2nc(N(C)C)nc(N(C)C)n2)n1
> 100 µM
COc1cc2ccc(CC#N)cc2cc1OC
> 100 µM
COc1cc(C)c(C(=O)/C=C/c2cc(OC)c(O)c(OC)c2)cc1O
54 µM
Cc1ccc(NC(=O)c2cccc([N+](=O)[O-])c2O)c(C)c1
> 100 µM
O=C(N/C(=C\c1ccc([N+](=O)[O-])cc1)c1nc2[nH]c(=S)[nH]c(=O)c2[nH]1)c1ccccc1
> 100 µM

For the 2 molecules below, give their TGI values.
1. CCOC(=O)CNC(SC)=C(C#N)C#N
2. CC(C)C(/C=C/c1ccccc1)=N\NC(=O)N/N=C(/C=C/c1ccccc1)C(C)C

Result:
1. > 100 µM
2. 76.9 µM

###

system: LOX IMVI melanoma; assay: NCI tumour cell line growth inhibition, 48 h; in the data active = GI50 below about 0.43 µM; inactive = the rest
One label from this list, please: active, inactive

Cc1cc(C)cc(Nc2nccc(-c3c(-c4ccc(F)cc4)ncn3C3CCNCC3)n2)c1
inactive

Task: # fetch the recorded call for COc1ccc(C(=O)Nc2ncc(Cc3ccc(F)cc3)s2)cc1 here
Result: active

Task: Follow-up item: C[C@@H]1CN(Cc2ccc(/C=C/c3n[nH]c4ccc5nc(-c6cn[nH]c6C(F)(F)F)c6c(c5c34)CCCC6)cc2)C[C@H](C)O1
Result: inactive

Task: What about O=C1Nc2ccccc2C12CC(c1ccccc1)=NN2 (stereo not given) ?
Result: inactive

Task: // next record c1ccc(-c2n(Cc3ccc4ccccc4n3)c3ccccc3[n+]2Cc2ccc3ccccc3n2)cc1
Result: active

###

test system: DU-145 prostate; experiment: NCI tumour cell line growth inhibition, 48 h
MEASURED_ENDPOINT: TGI

O=C1CC(c2ccccc2)Cc2nc3ccc(Cl)cc3cc21 (stereo not drawn)
> 100 µM
C[C@@H]1CN(Cc2ccc(/C=C/c3n[nH]c4ccc5nc(-c6cn[nH]c6C(F)(F)F)c6c(c5c34)CCCC6)cc2)C[C@H](C)O1
16.9 µM
Cc1ccc(O)c(Cc2nc3ccccc3nc2-c2cccc(Br)c2)c1
> 100 µM

Parameter requested: TGI. Apply to each item below.
1. COc1ccc(N2CCN(c3ccc4c(c3)NCC(=O)N4)CC2)cc1
2. N/C(=N\Nc1nc2cc([N+](=O)[O-])ccc2o1)c1ccccn1
3. C/C1=C\CC[C@@](C)(O)[C@H]2C[C@H](CC/C(C)=C/CC1)C1(CC1)C(=O)O2

Result:
1. > 100 µM
2. 1.11 µM
3. 31.2 µM

The following compounds each have a reported value; give each one's TGI.
1. Cc1ccccc1NC(=S)N/N=C(/c1ccccc1)c1ccccn1
2. NCCCCNCCCN
3. O=C1Nc2ccccc2C12CC(c1ccccc1)=NN2 (stereo not drawn)
4. CC(=O)Oc1ccc(OC(Oc2ccccc2)c2ccccc2)cc1 (stereo not drawn)
5. O=C(c1ccc(Cl)cc1)N(Cc1cccnc1)C(=S)N(Cc1cccnc1)C(=O)c1ccc(Cl)cc1
6. c1ccc(C(CCN2CCCC2)c2ccccn2)cc1 (stereo not drawn)
7. Cc1cc(-c2ccccc2)c(C)n1Cc1ccc(Cl)cc1
8. N=C(N)n1[nH]c2c(c1=O)CCC2

Result:
18.3 µM
> 100 µM
51.1 µM
> 100 µM
> 100 µM
> 100 µM
> 100 µM
> 100 µM

List the reported TGI of each compound below.
1. Oc1c(I)cc(I)cc1CNCCCN(Cc1ccccn1)Cc1ccccn1
2. O=C(Cc1ccccc1)Nc1nnc(CCSCCc2nnc(NC(=O)Cc3ccccc3)s2)s1

Result:
1. 4.63 µM
2. > 100 µM

Each compound below has a reported value. Please supply its TGI.
1. COc1ccc(N2CCN(CC(=O)N3CCN(c4nnc(-c5ccccc5)c(-c5ccccc5)n4)CC3)CC2)cc1
2. O=C1C[C@@H](c2ccccc2)NCCCCN(O)CCCN1
3. COC(=O)c1ccc(C)cc1C1CN=NC12Cc1cc(C)c(C)cc1C2=O (stereo not drawn)
4. NC1=CC(=O)C(=O)c2cccnc21
5. N#CSCC1COc2ccccc2O1 (stereo not drawn)
6. O=c1c2cc(-c3ccccc3)cnc2sn1-c1ccc([N+](=O)[O-])cc1
7. C1OCN2c3nonc3N3COCN4c5nonc5N1C2C43 (stereo not drawn)

Result:
1. > 100 µM
2. > 100 µM
3. > 100 µM
4. 16.3 µM
5. > 10 µM
6. > 100 µM
7. > 100 µM
